# testName: Pharmacokinetic study after single oral and IV administration of KD025 to rats
# Assay type: in vivo, Sprague–Dawley rats
# setupConditions: Sprague-Dawley, plasma; rat, PO 5 mg/kg, n = 5
measuredMetric: half-life (h)
One number for each entry, in h.

Reported half-life for CC(C)NC(=O)COc1cccc(-c2nc(Nc3ccc4[nH]ncc4c3)c3ccccc3n2)c1 [KD025] was 5.89

###

# testName: Pharmacokinetic study after single oral and IV administration of KD025 to rats
# Assay type: in vivo, Sprague–Dawley rats
# setupConditions: Sprague-Dawley, plasma; rat, IV 2 mg/kg, n = 5; C0 estimated by noncompartmental analysis; read-out: Cmax (C0)
measuredMetric: Cmax
Write the numeric value and follow it with the unit.

Reported Cmax for CC(C)NC(=O)COc1cccc(-c2nc(Nc3ccc4[nH]ncc4c3)c3ccccc3n2)c1 [KD025] was 4420 ng/mL
